// data source = patent US20220010021A1

- target-or-test-system: T1, human beta-Klotho (KLB) (human, UniProt Q86Z14 53-997);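 further: Anti-KLB antibodies captured on anti-human Fc CM5 chip, KLB injected as analyte, 180 s association and 1800 s dissociation, fitted to 1:1 binding model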
- T1 construct: bought protein; also called human KLB
- T1 sequence (looked up): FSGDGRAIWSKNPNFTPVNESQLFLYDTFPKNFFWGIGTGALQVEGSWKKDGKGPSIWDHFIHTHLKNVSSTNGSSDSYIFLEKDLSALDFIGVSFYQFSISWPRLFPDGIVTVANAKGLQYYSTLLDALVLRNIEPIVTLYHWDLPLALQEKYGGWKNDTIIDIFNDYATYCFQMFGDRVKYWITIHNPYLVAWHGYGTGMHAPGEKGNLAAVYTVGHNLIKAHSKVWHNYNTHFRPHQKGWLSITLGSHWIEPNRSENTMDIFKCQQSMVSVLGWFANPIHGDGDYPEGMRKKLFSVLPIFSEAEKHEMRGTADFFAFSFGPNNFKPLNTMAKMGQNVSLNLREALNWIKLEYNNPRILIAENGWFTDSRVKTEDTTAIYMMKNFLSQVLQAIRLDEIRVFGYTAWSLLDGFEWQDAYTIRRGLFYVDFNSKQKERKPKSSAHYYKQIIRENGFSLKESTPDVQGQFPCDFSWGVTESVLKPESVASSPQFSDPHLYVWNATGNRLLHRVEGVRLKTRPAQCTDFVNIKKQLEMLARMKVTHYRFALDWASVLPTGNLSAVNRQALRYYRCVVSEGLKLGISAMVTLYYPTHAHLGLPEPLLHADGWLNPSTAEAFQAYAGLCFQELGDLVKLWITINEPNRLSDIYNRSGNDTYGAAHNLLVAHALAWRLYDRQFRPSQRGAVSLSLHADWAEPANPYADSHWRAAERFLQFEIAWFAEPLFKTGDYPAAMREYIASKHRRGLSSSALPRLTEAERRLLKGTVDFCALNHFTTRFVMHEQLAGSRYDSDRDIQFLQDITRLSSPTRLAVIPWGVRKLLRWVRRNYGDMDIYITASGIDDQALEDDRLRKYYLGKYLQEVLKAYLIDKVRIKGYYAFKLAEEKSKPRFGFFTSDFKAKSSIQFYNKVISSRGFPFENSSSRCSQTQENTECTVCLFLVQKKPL
- test-protocol: SPR

- binder: "Ab0344 (antibody, IgG4, V domains shown, IgG4 PE) VH: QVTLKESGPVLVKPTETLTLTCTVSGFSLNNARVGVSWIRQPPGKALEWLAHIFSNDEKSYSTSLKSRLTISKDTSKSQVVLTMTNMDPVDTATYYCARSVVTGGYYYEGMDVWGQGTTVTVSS VL: SYVLTQPPSVSVAPGQTARITCGGSNIGSESVHWYQQKPGQAPVLVVYAASDRPSGIPERFSGSNSGNTATLTISRVEAGDEADYYCQVWEGSSDHVVFGGGTKLTVLG"
  display-unit: "s⁻¹"
  koff: 0.00168
- binder: "Ab0337 (antibody, IgG4, V domains shown, IgG4 PE) VH: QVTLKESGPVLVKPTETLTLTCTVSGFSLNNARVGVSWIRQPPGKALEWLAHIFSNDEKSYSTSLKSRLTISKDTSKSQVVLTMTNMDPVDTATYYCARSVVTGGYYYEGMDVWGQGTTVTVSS VL: SYVLTQPPSVSVAPGQTARITCGGSNIGSESVHWYQQKPGQAPVLVVYSHSDRPSGIPERFSGSNSGNTATLTISRVEAGDEADYYCQVWEGESDHVVFGGGTKLTVLG"
  display-unit: "s⁻¹"
  koff: 0.00053
- binder: "Ab0201 (antibody, IgG4, V domains shown, IgG4 PE) VH: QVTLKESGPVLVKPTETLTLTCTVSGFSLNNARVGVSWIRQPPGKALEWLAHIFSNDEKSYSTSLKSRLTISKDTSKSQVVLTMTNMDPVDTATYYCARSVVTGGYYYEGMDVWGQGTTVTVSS VL: SYVLTQPPSVSVAPGQTARITCGGSNIGSESVHWYQQKPGQAPVLVVYDDSDRPSGIPERFSGSNSGNTATLTISRVEAGDEADYYCQVWDGNSDHVVFGGGTKLTVLG"
  display-unit: "s⁻¹"
  koff: 0.000336
